# key: entry, value: change of melting temperature, mutant - wild type (higher = more stable)
B1: 3-isopropylmalate dehydrogenase, P50455 (parent)
chain: MGFTVALIQGDGIGPEIVSKSKRILAKINELYSLPIEYIEVEAGDRALARYGEALPKDSLKIIDKADIILKGPVGESAADVVVKLRQIYDMYANIRPAKSIPGIDTKYGNVDILIVRENTEDLYKGFEHIVSDGVAVGMKIITRFASERIAKVGLNFALRRRKKVTCVHKANVMRITDGLFAEACRSVLKGKVEYSEMYVDAAAANLVRNPQMFDVIVTENVYGDILSDEASQIAGSLGIAPSANIGDKKALFEPVHGAAFDIAGKNIGNPTAFLLSVSMMYERMYELSNDDRYIKASRALENAIYLVYKERKALTPDVGGNATTDDLINEIYNKLG

variants of: B1; conditions: Sulfurisphaera tokodaii (strain DSM 16993 / JCM 10545 / NBRC 100140 / 7); pH 7; Thermal; CD; Potassium phosphate 20 mM; structure 1WPW; whole UniProt chain shown
Respond numerically; units are °C and should not be typed.

Worked examples, 6 variants total:
>  <Variant id>
M91L I95L K152R G154A A259S F261P Y282L

>  <Reported measurement>
0.4

$$$$
>  <Variant id>
Y282L

>  <Reported measurement>
-1.3

$$$$
>  <Variant id>
A259S F261P

>  <Reported measurement>
1.1

$$$$
>  <Variant id>
K152R

>  <Reported measurement>
-0.4

$$$$
>  <Variant id>
G154A

>  <Reported measurement>
1.9

$$$$
>  <Variant id>
K152R G154A

>  <Reported measurement>
1.2

$$$$

Okay, now this variant:
Q) May I ask what change of melting temperature, mutant - wild type (higher = more stable) has been recorded for M91L I95L ?
A) 3.2
